Molecular target: Human PD-L1/PD-1 (Homo sapiens)
Construct: made in house; host or cells: HEK293T
Sequence (Q9NZQ7 with tags, fused parts or gaps): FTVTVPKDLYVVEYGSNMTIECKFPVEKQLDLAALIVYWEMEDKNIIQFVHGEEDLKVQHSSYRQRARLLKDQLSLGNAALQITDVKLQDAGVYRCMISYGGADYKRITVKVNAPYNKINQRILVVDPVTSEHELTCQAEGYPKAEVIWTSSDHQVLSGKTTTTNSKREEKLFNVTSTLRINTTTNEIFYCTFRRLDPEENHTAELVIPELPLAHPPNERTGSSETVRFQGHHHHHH
Assay: HTRF PD-1-Ig/PD-L1-His binding assay (human PD-L1)
Conditions: cluster symbol; read-out: HTRF IC50 cluster
pIC50: −log10 of the molar value. Positions of bridges follow the written chain, without caps; N, C: chain ends. Non-standard residues stand in square brackets, D forms with d. Residues, ends and D or L forms follow the SMILES beside them. ξ: configuration not given here. *: point of attachment. Bta = N[C@@H](Cc1csc2ccccc12)C(=O)O; ξPro(4R-OH) = O=C(O)C1C[C@@H](O)CN1; Hyp = O=C(O)[C@@H]1C[C@@H](O)CN1; NMeNle = CCCC[C@H](NC)C(=O)O; NMeS = CN[C@@H](CO)C(=O)O; Pip = O=C(O)[C@@H]1CCCCN1; NMeA = CN[C@@H](C)C(=O)O; Dab = NCC[C@H](N)C(=O)O; Dap = NC[C@H](N)C(=O)O; Bn = c1ccc(C*)cc1; ξC = NC(CS)C(=O)O; Sar = CNCC(=O)O
measuredProperty: pIC50

molecule	pIC50
CCCC[C@H]1C(=O)N2CCC[C@@H]2C(=O)N[C@@H](CCCNC(=N)N)C(=O)N[C@H](C(=O)NCC(N)=O)CSCC(=O)N[C@@H](Cc2ccc(O)cc2)C(=O)N(C)[C@@H](C)C(=O)N[C@@H](CC(N)=O)C(=O)N2CCC[C@H]2C(=O)N[C@@H](Cc2cnc[nH]2)C(=O)N[C@@H](CC(C)C)C(=O)N2CCC[C@H]2C(=O)N[C@@H](Cc2c[nH]c3ccccc23)C(=O)N[C@@H](CO)C(=O)N[C@@H](Cc2csc3ccccc23)C(=O)N1C [Example 5004] ({CH2CO}-Y[NMeA]NPHLPWS[Bta][NMeNle][dP]RCG-NH2; thioether N-14)	7.52 to 8.17
CCCC[C@H]1C(=O)N(C)[C@@H](CCCC)C(=O)N[C@@H](CN)C(=O)N[C@H](C(=O)NCC(N)=O)CSCC(=O)N[C@@H](Cc2ccc(O)cc2)C(=O)N(C)[C@@H](C)C(=O)N[C@@H](CC(N)=O)C(=O)N2CCC[C@H]2C(=O)N[C@@H](CN)C(=O)N[C@@H](CC(C)C)C(=O)N2C[C@H](O)C[C@H]2C(=O)N[C@@H](Cc2c[nH]c3ccccc23)C(=O)N[C@@H](CCN)C(=O)N[C@@H](Cc2c[nH]c3ccccc23)C(=O)N1C [Example 5059] ({CH2CO}-Y[NMeA]NP[Dap]L[Hyp]W[Dab]W[NMeNle][NMeNle][Dap]CG-NH2; thioether N-14)	8.17 to 9.41
CCCC[C@H]1C(=O)N(C)[C@@H](CCCC)C(=O)N[C@@H](C)C(=O)N[C@H](C(=O)NCC(N)=O)CSCC(=O)N[C@@H](Cc2ccc(O)cc2)C(=O)N(C)[C@@H](C)C(=O)N[C@@H](CC(=O)O)C(=O)N2CCC[C@H]2C(=O)N[C@@H](Cc2c[nH]cn2)C(=O)N[C@@H](CCCCN)C(=O)N2C[C@H](O)CC2C(=O)N[C@@H](Cc2c[nH]c3ccccc23)C(=O)N[C@@H](CO)C(=O)N[C@@H](Cc2c[nH]c3ccccc23)C(=O)N1C (stereo partly drawn) [Example 1202] ({CH2CO}-Y[NMeA]DPHK[ξPro(4R-OH)]WSW[NMeNle][NMeNle]ACG-NH2; thioether N-14)	8.17 to 9.41
CCCC[C@H]1C(=O)N(C)[C@@H](CCCC)C(=O)N[C@@H](CCCNC(=N)N)C(=O)N[C@H](C(=O)NCC(N)=O)CSCC(=O)N[C@@H](Cc2ccc(O)cc2)C(=O)N2CCCC[C@H]2C(=O)N[C@@H](CC(=O)O)C(=O)N2CCC[C@H]2C(=O)N[C@@H](CN)C(=O)N[C@@H](CC(C)C)C(=O)N2C[C@H](O)C[C@H]2C(=O)N[C@@H](Cc2c[nH]c3ccccc23)C(=O)N[C@@H](CO)C(=O)N[C@@H](Cc2c[nH]c3ccccc23)C(=O)N1C [Example 1233] ({CH2CO}-Y[Pip]DP[Dap]L[Hyp]WSW[NMeNle][NMeNle]RCG-NH2; thioether N-14)	7.52 to 8.17
CCCC[C@H]1C(=O)N(C)[C@@H](COCC)C(=O)N[C@@H](CCCNC(=N)N)C(=O)NC(C(=O)NCC(N)=O)CSCC(=O)N[C@@H](Cc2ccc(O)cc2)C(=O)N(C)[C@@H](C)C(=O)N[C@@H](CC(N)=O)C(=O)N2CCC[C@H]2C(=O)N[C@@H](Cc2cnc[nH]2)C(=O)N[C@@H](CC(C)C)C(=O)N2CCC[C@H]2C(=O)N[C@@H](Cc2c[nH]c3ccccc23)C(=O)N[C@@H](CO)C(=O)N[C@@H](Cc2csc3ccccc23)C(=O)N1C (some centres unmarked) [Example 9040] ({CH2CO}-Y[NMeA]NPHLPWS[Bta][NMeNle][NMeS](Et)R[ξC]G-NH2; thioether N-14)	8.17 to 9.41

Param readout = pIC50; param system = Human PD-L1/PD-1 (Homo sapiens); param query = CC(C)C[C@@H]1NC(=O)[C@H](Cc2cnc[nH]2)NC(=O)[C@@H]2CCCN2C(=O)[C@H](CC(N)=O)NC(=O)[C@H](C)N(C)C(=O)[C@H](Cc2ccccc2)NC(=O)CSC[C@@H](C(=O)NCC(N)=O)NC(=O)[C@H](CCCNC(=N)N)NC(=O)[C@H](C)N(C)C(=O)[C@H](COCc2ccccc2)N(C)C(=O)[C@H](Cc2c[nH]c3ccccc23)NC(=O)[C@H](CO)NC(=O)[C@H](Cc2c[nH]c3ccccc23)NC(=O)CN(C)C1=O [Example 6012] ({CH2CO}-F[NMeA]NPHL[Sar]WSW[NMeS](Bn)[NMeA]RCG-NH2; thioether N-14) ; response: value 7.52 to 8.17

Param readout = pIC50; param system = Human PD-L1/PD-1 (Homo sapiens); param query = `C=CCCCCC[C@H]1C(=O)N(C)[C@@H](CCCCCC=C)C(=O)N[C@@H](CCCNC(=N)N)C(=O)N[C@H](C(=O)NCC(N)=O)CSCC(=O)N[C@@H](Cc2ccccc2)C(=O)N(C)[C@@H](C)C(=O)N[C@@H](CC(N)=O)C(=O)N2CCC[C@H]2C(=O)N[C@@H](Cc2cnc[nH]2)C(=O)N[C@@H](CC(C)C)C(=O)N(C)CC(=O)N[C@@H](Cc2c[nH]c3ccccc23)C(=O)N[C@@H](CO)C(=O)N[C@@H](Cc2c[nH]c3ccccc23)C(=O)N1C` ; response: value < 7.52

Param readout = pIC50; param system = Human PD-L1/PD-1 (Homo sapiens); param query = `CCCC[C@H]1C(=O)N(C)[C@@H](CCCC)C(=O)N[C@@H](CCCNC(=N)N)C(=O)N[C@H](C(=O)NCC(N)=O)CSCC(=O)N[C@@H](Cc2ccc(O)cc2)C(=O)N(C)[C@@H](C)C(=O)N[C@@H](CC(N)=O)C(=O)N2CCC[C@H]2C(=O)N[C@@H](Cc2cnc[nH]2)C(=O)N[C@@H](CC(C)C)C(=O)N2CC(F)(F)C[C@H]2C(=O)N[C@@H](Cc2c[nH]c3ccccc23)C(=O)N[C@@H](CO)C(=O)N[C@@H](Cc2c[nH]c3ccccc23)C(=O)N1C` ; response: value 7.52 to 8.17

###

Target: LK35.2-hPD-L1 cells / PE-labeled PD-1-Ig (Homo sapiens)
Construct: expressed in transfected cells; host or cells: LK35.2 mouse B cell line
Sequence (Q9NZQ7 19-290): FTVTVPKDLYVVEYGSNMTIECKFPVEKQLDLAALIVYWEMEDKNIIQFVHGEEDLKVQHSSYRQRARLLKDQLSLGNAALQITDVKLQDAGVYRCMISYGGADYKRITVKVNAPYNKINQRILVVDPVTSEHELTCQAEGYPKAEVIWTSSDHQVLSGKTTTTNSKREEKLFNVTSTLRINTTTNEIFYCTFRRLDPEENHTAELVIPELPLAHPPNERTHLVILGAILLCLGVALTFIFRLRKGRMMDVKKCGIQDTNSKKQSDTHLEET
Test: LK35.2-hPD-L1 cell binding high-content screening assay
Assay type: cell-based
Conditions: cluster symbol; cell line of CBA not given (LK35.2-hPD-L1 or 293T-hPD-L1); read-out: CBA IC50 cluster
Positions of bridges follow the written chain, without caps; N, C: chain ends. Non-standard residues stand in square brackets, D forms with d. Residues, ends and D or L forms follow the SMILES beside them. NMeF = CN[C@@H](Cc1ccccc1)C(=O)O; NMeNle = CCCC[C@H](NC)C(=O)O; NMeA = CN[C@@H](C)C(=O)O; Dap = NC[C@H](N)C(=O)O; Sar = CNCC(=O)O
measuredProperty: IC50

molecule	subjectOfTest	IC50
CCCC[C@H]1C(=O)N(C)[C@@H](CCCC)C(=O)N[C@@H](CCCNC(=N)N)C(=O)N[C@H](C(=O)NCC(N)=O)CSCC(=O)N[C@@H](Cc2ccc(O)cc2)C(=O)N(C)[C@@H](C)C(=O)N[C@@H](CCC(=O)O)C(=O)N2CCC[C@H]2C(=O)N[C@@H](Cc2cnc[nH]2)C(=O)N[C@@H](CC(C)C)C(=O)N2CCC[C@H]2C(=O)N[C@@H](Cc2c[nH]c3ccccc23)C(=O)N[C@@H](CO)C(=O)N[C@@H](Cc2c[nH]c3ccccc23)C(=O)N1C [Example 1167] ({CH2CO}-Y[NMeA]EPHLPWSW[NMeNle][NMeNle]RCG-NH2; thioether N-14)	LK35.2-hPD-L1 cells / PE-labeled PD-1-Ig (Homo sapiens)	0.158 to 4.71 nM

Query (molecule): CCCC[C@H]1C(=O)N(C)CC(=O)N[C@@H](CN)C(=O)N[C@@H](C(C)C)C(=O)N(C)[C@@H](Cc2ccccc2)C(=O)N[C@@H](Cc2ccc(O)cc2)C(=O)N(C)CC(=O)N[C@@H](Cc2c[nH]c3ccccc23)C(=O)N[C@@H](Cc2ccc(O)cc2)C(=O)N[C@@H](CC(C)C)C(=O)N[C@H](C(=O)NCC(N)=O)CSCC(=O)N[C@@H](Cc2ccccc2)C(=O)N(C)[C@@H](Cc2ccccc2)C(=O)N1C [Example 3152] ({CH2CO}-F[NMeF][NMeNle][Sar][Dap]V[NMeF]Y[Sar]WYLCG-NH2; thioether N-13) ; field requested: IC50 4.78 to 72.9 nM
